Value source: PubChem BioAssay (NCI)

- System: K-562 leukemia
- method: NCI tumour cell line growth inhibition, 48 h
parameter-measured: TGI

compound	data-value
COC1=CC(=O)c2c(cc(COP(N)(=O)N(CCBr)CCBr)n2C)C1=O (stereo not given)	> 100 µM
C/C(CC(=O)Nc1ccc(Cl)c(Cl)c1)=N/NC(=O)C[N+](C)(C)C	> 100 µM
CC(=O)NC1C(OCc2ccccc2)OC(CO)C(O)C1OC(C)C(=O)NC(C)C(=O)N[C@@H](CCC(=O)OCCCNC1c2ccccc2Nc2cccc([N+](=O)[O-])c21)C(N)=O (stereo not given in full)	0.0141 µM
O=C1OCCC1(Cc1ccc(Cl)cc1)Cc1ccc(Cl)cc1	> 100 µM
NC(Cc1ccccc1)P(=O)(O)O (stereo not given)	> 100 µM
COc1cc(-c2nn(-c3cccc(NC(=O)Nc4cccc(C(F)(F)F)c4)c3)cc2-c2ccncc2)ccc1Cl	12.1 µM
CCN=c1nc2sc3c(c2c(NC(=S)NCC)s1)CCN(N1CCc2c(sc4nc(=NCC)sc(NC(=S)NCC)c24)C1)C3	> 100 µM
O=S(O)CCCCCSSSCCCCCS(=O)O	> 100 µM
Clc1ccc(Cn2c(CN3CCCC3)nc3ccccc32)cc1	> 100 µM
CC(=O)c1c(Nc2cccc(F)c2)[nH]c2c(Cl)cc(Cl)c(Cl)c2c1=O	> 100 µM
